Test system: antibodies in sera from SARS patients (sera 1a, 1b, 2, 6, 37, 62, London, SARS-yellow, SARS-green)
Type: binding, human
Readout label: Binding of serum 1a to looped/cyclic peptides of protein X1 of SARS-CoV Urbani
Numbers only.

Reference set, count: 7
Incoming: Return reported Binding of serum 1a to looped/cyclic peptides of protein X1 of SARS-CoV Urbani; argument: EGDGISTPKLKEDYQ
Outgoing: 0.4

Incoming: Return reported Binding of serum 1a to looped/cyclic peptides of protein X1 of SARS-CoV Urbani; argument: ENATFFIFNKLVKDP
Outgoing: 0.4

Incoming: Return reported Binding of serum 1a to looped/cyclic peptides of protein X1 of SARS-CoV Urbani; argument: ESTQITTDTGIENAT
Outgoing: 0.4

Incoming: Return reported Binding of serum 1a to looped/cyclic peptides of protein X1 of SARS-CoV Urbani; argument: QITTDTGIENATFFI
Outgoing: 0.7

Incoming: Return reported Binding of serum 1a to looped/cyclic peptides of protein X1 of SARS-CoV Urbani; argument: IHTIDGSSGVANPAM
Outgoing: 0.5

Incoming: Return reported Binding of serum 1a to looped/cyclic peptides of protein X1 of SARS-CoV Urbani; argument: TQITTDTGIENATFF
Outgoing: 0.5

Incoming: Return reported Binding of serum 1a to looped/cyclic peptides of protein X1 of SARS-CoV Urbani; argument: YVVVHGYFTEVYYQL
Outgoing: 0.6

Now for the sequence whose Binding of serum 1a to looped/cyclic peptides of protein X1 of SARS-CoV Urbani we want.
Incoming: Return reported Binding of serum 1a to looped/cyclic peptides of protein X1 of SARS-CoV Urbani; argument: QIHTIDGSSGVANPA
Outgoing: 0.4
